- Test system: Malme-3M
- protocol: NCI tumour cell line growth inhibition, 48 h
Activity calls are given as the source filed them. Cut-off read from the data, not from the text of the source: active = GI50 up to about 1.1 µM and inactive = higher.
Attribute: GI50

>>> result("CCN(CC)C1Oc2cc3c(cc2C(c2cccc(OC)c2OC)C1C)OCO3 (stereo not drawn)")
"8.51 µM (inactive)"
>>> result("CCOC(=O)C(N)CSC(=O)NC (stereo not drawn)")
"117 µM (inactive)"
>>> result("COc1ccc2[nH]c3c(C)c4ccnc(NCCCN(C)CCCNC(=O)NCCCN(C)CCCNc5nccc6c(C)c7[nH]c8ccc(OC)cc8c7c(C)c56)c4c(C)c3c2c1")
"0.569 µM (active)"
>>> result("N=C(N)NCCCC(Nc1c2ccccc2nc2ccccc12)C(=O)O (stereo not drawn)")
"> 100 µM (inactive)"

Query: What measured GI50 is associated with "C=CCOC(=O)CCCCCCCCCCCCCCCOC(=O)c1c(CCC[C@@H](C)O[Si](C)(C)C(C)(C)C)nc([O-])[n+]2c1CC[C@H]2CC1(CC/C=C\[C@H](CC)O[Si](C(C)C)(C(C)C)C(C)C)OCCO1" on Malme-3M?
Result: > 100 µM (inactive)

Query: Moving on to the next compound: COc1cc(/C=C2\C(=O)N(Cc3ccccc3)C(c3ccccc3)S2(=O)=O)cc(OC)c1OC (stereo not drawn)
Result: 39.9 µM (inactive)

Query: Moving on to the next compound: CCOC(=O)CC1Nc2ccccc2C12CCc1c([nH]c3ccccc13)C2C(=O)OCC (stereo not drawn)
Result: 10.5 µM (inactive)

Query: Moving on to the next compound: "N#Cc1c(N2CCN(c3ccc([N+](=O)[O-])cc3)CC2)[n+]([O-])c2ccc(Cl)cc2[n+]1[O-]"
Result: 2 µM (inactive)

Query: Moving on to the next compound: CCCNC(=O)CCC(C)[C@H]1CCC2C3C(C[C@H](OC(C)=O)[C@@]21C)[C@@]1(C)CCC2(C[C@H]1C[C@H]3OC(C)=O)OOC1(CCC(C)CC1)OO2 (stereo partly drawn)
Result: 18.6 µM (inactive)

Query: Moving on to the next compound: "CC1(C)O[C@@H](CCl)C[C@@H](C#N)O1"
Result: > 100 µM (inactive)

Query: Moving on to the next compound: CCOC(=O)C1Oc2ccc([N+](=O)[O-])c3c2C1(O)CCC3 (stereo not drawn)
Result: > 100 µM (inactive)

Query: Moving on to the next compound: Cc1cn(C2CC(n3cncn3)C(C(C)O)O2)c(=O)[nH]c1=O (stereo not drawn)
Result: > 100 µM (inactive)

Query: Moving on to the next compound: "CCCCCCCCCCCC1=C(O)C(=O)C=C(O)C1=O"
Result: 5.81 µM (inactive)

Query: Moving on to the next compound: CC(=O)NC1C(OC(C)C(=O)NC(C(=O)NC(CCC(=O)NCCCNC2c3ccccc3Nc3cccc([N+](=O)[O-])c32)C(N)=O)C(C)C)C(O)C(CO)OC1(C)OCc1ccccc1 (stereo not drawn)
Result: 1.12 µM (inactive)

Query: Moving on to the next compound: COC(=O)C1CC2(C)C=CC1N(C(=O)OCc1ccccc1)C2 (stereo not drawn)
Result: > 100 µM (inactive)

Query: Moving on to the next compound: "CCOC(=O)c1nc2ccccc2nc1Nc1ccc(OC)c(OC)c1"
Result: > 100 µM (inactive)

Query: Moving on to the next compound: O=c1ccn(CC2(CO)CC(Cc3ccccc3)C2)c(=O)[nH]1 (stereo not drawn)
Result: > 100 µM (inactive)

Query: Moving on to the next compound: "COc1cc2c(c(OC)c1OC)C(=O)[C@@H]1[C@H]2N1C(=O)NCCCl"
Result: 64.7 µM (inactive)

Query: Moving on to the next compound: "COC(=O)c1c(C#N)[nH]c(-c2ccsc2)c1C(=O)OC"
Result: > 100 µM (inactive)

Query: Moving on to the next compound: "O=C(O)CN(CCNC(=O)OCC1c2ccccc2-c2ccccc21)CCNC(=O)OCC1c2ccccc2-c2ccccc21"
Result: 22.3 µM (inactive)

Query: Moving on to the next compound: "CCOn1c(C2(CC3CCN(C(=O)c4ccccc4)CC3)OCCO2)cc2ccccc21"
Result: 18.2 µM (inactive)

Where these numbers come from: ChEMBL document CHEMBL1201862
